Target: TRPML1 (Homo sapiens, UniProt Q9GZU1)
Sequence (Q9GZU1 whole entry L15A/L16A/L577A/L578A, form open): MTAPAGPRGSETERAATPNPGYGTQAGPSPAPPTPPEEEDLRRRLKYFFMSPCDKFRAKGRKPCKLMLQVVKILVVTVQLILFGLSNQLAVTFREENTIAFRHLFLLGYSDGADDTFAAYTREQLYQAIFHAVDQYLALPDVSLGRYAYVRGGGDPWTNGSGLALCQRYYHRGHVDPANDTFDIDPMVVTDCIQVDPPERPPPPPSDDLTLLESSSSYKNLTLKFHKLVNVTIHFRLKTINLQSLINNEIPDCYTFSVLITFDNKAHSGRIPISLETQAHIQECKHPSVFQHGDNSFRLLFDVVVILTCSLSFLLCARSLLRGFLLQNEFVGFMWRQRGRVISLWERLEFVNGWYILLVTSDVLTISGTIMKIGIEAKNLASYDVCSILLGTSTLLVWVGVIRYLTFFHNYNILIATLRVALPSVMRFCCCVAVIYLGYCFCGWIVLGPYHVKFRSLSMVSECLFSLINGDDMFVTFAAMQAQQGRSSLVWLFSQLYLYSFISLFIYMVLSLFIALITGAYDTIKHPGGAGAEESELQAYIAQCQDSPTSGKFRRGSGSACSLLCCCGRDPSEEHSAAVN
Assay: Fluorescent TRPML1 assay (Fluo4-AM calcium fluorescence in doxycycline-induced HEK-293 Trex cells)
Format: cell-based
Settings: fluorescent calcium assay
pEC50: −log10 of the molar value.
// reported pEC50 per item

smiles_string=COc1cccc(-n2cc(C3CC3)c3c(N4CCN(C(=O)OC(C)(C)C)C[C@H]4C)ncnc32)c1 observed_value="6.30 to 7.00"
smiles_string=Cc1cn(-c2cc(C#N)ccn2)c2ncnc(N3CCN(C(=O)OC(C)(C)C)C[C@@H]3C)c12 observed_value="> 7.00"
smiles_string=COc1cccc(-n2cc(-c3ccccn3)c3c(N4CCN(C(=O)OC(C)(C)C)C[C@@H]4C)ncnc32)c1 observed_value="5.70 to 6.30"

Turning to the following compound.
# compound C[C@H]1CN(C(=O)OC(C)(C)C)CCN1c1ncnc2c1c(C1CC1)cn2-c1cc(C#N)n(C)n1 ; its pEC50 = 6.30 to 7.00
